# System: Digitaria sanguinalis (DIGSA)
# procedure.summary: Example A post-emergence herbicidal test, DIGSA
# Type: in vivo
# experimental.setup: rate 250 g/ha, evaluated 14 or 15 days after spraying
recorded.metric: Post-Emergence Activity DIGSA (100=total damage to plant; 0=no damage to plant)
Just the number.

Task: Provide measured Post-Emergence Activity DIGSA (100=total damage to plant; 0=no damage to plant) value, entry: Cc1cc(C)c(C2C(=O)CC(CC3CCOCC3)C2=O)c(C)c1 (stereo not shown) [Compound T4]
Result: 90

Task: Provide measured Post-Emergence Activity DIGSA (100=total damage to plant; 0=no damage to plant) value, entry: Cc1cc(C)c(C2C(=O)CC(CC3CCOC3)C2=O)c(C)c1 (stereo not shown) [Compound T5]
Result: 50

Task: Provide measured Post-Emergence Activity DIGSA (100=total damage to plant; 0=no damage to plant) value, entry: Cc1cc(C)c(C2C(=O)C/C(=C\C3CCOCC3)C2=O)c(C)c1 (stereo not shown) [Compound T8]
Result: 80

Task: Provide measured Post-Emergence Activity DIGSA (100=total damage to plant; 0=no damage to plant) value, entry: Cc1cc(C)c(C2=C(OC(=O)C(C)(C)C)CC(CC3CCOCC3)C2=O)c(C)c1 (stereo not shown) [Compound P5]
Result: 70

* * *

Could you please report measured pest or weed control at 250 g/ha for the items listed next?
# Tested on: Echinochloa crus-galli (ECHCG)
# procedure.summary: Example B post-emergence herbicidal test, ECHCG
# Type: in vivo
# experimental.setup: Echinochloa crus-galli, 312 h, rate 250 g/ha, evaluated after 13 days, scale 0-100, read-out: Post-emergence activity ECHCG (100=total damage to plant; 0=no damage to plant)
Report the value in % with no unit label.

Task: Provide measured pest or weed control at 250 g/ha value, entry: Cc1cc(C)c(C2C(=O)CC(CC3CCN(C(=O)c4ccc(Cl)c(Cl)c4)CC3)C2=O)c(C)c1 (stereo not shown) [Compound T74]
Result: 100

Task: Provide measured pest or weed control at 250 g/ha value, entry: CC(=O)OC1=C(c2c(C)cc(C)cc2C)C(=O)/C(=C/C2CCN(C(C)=O)C2)C1 (stereo not shown) [Compound P42]
Result: 70

Task: Provide measured pest or weed control at 250 g/ha value, entry: Cc1cc(C)c(C2C(=O)CC(CC3CCN(S(=O)(=O)C(C)C)CC3)C2=O)c(C)c1 (stereo not shown) [Compound T93]
Result: 60

Task: Provide measured pest or weed control at 250 g/ha value, entry: Cc1cc(-c2ccccc2)cc(C)c1C1C(=O)CC(CC2CCOC2)C1=O (stereo not shown) [Compound T159]
Result: 100

Task: Provide measured pest or weed control at 250 g/ha value, entry: Cc1cc(C)c(C2C(=O)CC(C(O)C3CCOC(C)(C)C3)C2=O)c(C)c1 (stereo not shown) [Compound T38]
Result: 100

Task: Provide measured pest or weed control at 250 g/ha value, entry: Cc1cc(C)c(C2=C(OC(=O)C(C)(C)C)CC(CC3CCN(C(=O)C(C)(C)C)C3)C2=O)c(C)c1 (stereo not shown) [Compound P59]
Result: 70

Task: Provide measured pest or weed control at 250 g/ha value, entry: Cc1cc(C)c(C2C(=O)C/C(=C\C3CCOC(C)(C)C3)C2=O)c(C)c1 (stereo not shown) [Compound T37]
Result: 100

Task: Provide measured pest or weed control at 250 g/ha value, entry: COCC1(CC2CCOC2)CC(=O)C(c2c(C)cc(C)cc2C)C1=O (stereo not shown) [Compound T153]
Result: 10

Task: Provide measured pest or weed control at 250 g/ha value, entry: Cc1cc(C)c(C2C(=O)CC(CC3CCN(S(=O)(=O)c4ccccc4)CC3)C2=O)c(C)c1 (stereo not shown) [Compound T91]
Result: 50

Task: Provide measured pest or weed control at 250 g/ha value, entry: CCSC(=O)OC1=C(c2c(C)cc(C)cc2C)C(=O)C(CC2CCOC2)C1 (stereo not shown) [Compound P30]
Result: 90

Task: Provide measured pest or weed control at 250 g/ha value, entry: Cc1cc(C)c(C2C(=O)CC(CC3CCN(C(=O)C4CC4)CC3)C2=O)c(C)c1 (stereo not shown) [Compound T88]
Result: 90

Task: Provide measured pest or weed control at 250 g/ha value, entry: Cc1cc(C)c(C2=C(OC(=O)c3ccccc3)C/C(=C\C3CCN(C(=O)c4ccccc4)C3)C2=O)c(C)c1 (stereo not shown) [Compound P48]
Result: 90

Task: Provide measured pest or weed control at 250 g/ha value, entry: Cc1cc(C)c(C2C(=O)CC(CC3CCN(C(=O)Cc4ccccc4)CC3)C2=O)c(C)c1 (stereo not shown) [Compound T82]
Result: 80

Task: Provide measured pest or weed control at 250 g/ha value, entry: Cc1cc(C)c(C2=C(OC(=O)c3ccc(Cl)nc3)CC(CC3CCN(C(=O)c4ccc(Cl)nc4)C3)C2=O)c(C)c1 (stereo not shown) [Compound P64]
Result: 90

Task: Provide measured pest or weed control at 250 g/ha value, entry: Cc1cc(C)c(C2=C(OC(=O)C(C)C)CC(CC3CCN(C(=O)C(C)C)C3)C2=O)c(C)c1 (stereo not shown) [Compound P58]
Result: 70

Task: Provide measured pest or weed control at 250 g/ha value, entry: CCC(=O)OC1=C(c2c(C)cc(C)cc2C)C(=O)C(CC2CCN(C(=O)CC)CC2)C1 (stereo not shown) [Compound P65]
Result: 90

* * *

# Test system: Lolium perenne (LOLPE)
# procedure.summary: Example B post-emergence herbicidal test, LOLPE
# Assay type: in vivo
# experimental.setup: Lolium perenne, 312 h, rate 250 g/ha, evaluated after 13 days, scale 0-100, read-out: Post-emergence activity LOLPE (100=total damage to plant; 0=no damage to plant)
Labelling: pest or weed control at 250 g/ha reported below 60% becomes 1; at or above becomes -1.

Task: Answer whether the molecule Cc1cc(C)c(C2=C(OC(=O)OC(C)(C)C)C/C(=C\C3CCN(C(=O)OC(C)(C)C)CC3)C2=O)c(C)c1 has pest or weed control at 250 g/ha strictly less than 60%
Result: 1

Task: Answer whether the molecule Cc1cc(C)c(C2C(=O)CC(CC3CCN(S(=O)(=O)c4ccc(Cl)cc4)CC3)C2=O)c(C)c1 (centres unmarked) has pest or weed control at 250 g/ha strictly less than 60%
Result: 1

Task: Answer whether the molecule Cc1cc(C)c(C2C(=O)CC(CC3CCN(C(=O)c4ccc(F)cc4)CC3)C2=O)c(C)c1 (centres unmarked) has pest or weed control at 250 g/ha strictly less than 60%
Result: -1

Task: Answer whether the molecule Cc1cc(C)c(C2C(=O)C/C(=C\C3CCSCC3)C2=O)c(C)c1 (centres unmarked) has pest or weed control at 250 g/ha strictly less than 60%
Result: -1

Task: Answer whether the molecule Cc1cc(C)c(C2C(=O)CC(CC3CCN(C(=O)c4cccs4)C3)C2=O)c(C)c1 (centres unmarked) has pest or weed control at 250 g/ha strictly less than 60%
Result: -1

Task: Answer whether the molecule Cc1cc(C)c(C2C(=O)CC(CC3CCN(C(=O)OCC(Cl)(Cl)Cl)CC3)C2=O)c(C)c1 (centres unmarked) has pest or weed control at 250 g/ha strictly less than 60%
Result: -1

Task: Answer whether the molecule Cc1cc(-c2ccccc2)cc(C)c1C1C(=O)CC(CC2CCOCC2)C1=O (centres unmarked) has pest or weed control at 250 g/ha strictly less than 60%
Result: -1
